All figures here come from patent US8383637B2.

# testedOn: β-secretase(BACE) (Homo sapiens, UniProt P56817)
# Construct: purchased Panvera
# Sequence (P56817 46-501): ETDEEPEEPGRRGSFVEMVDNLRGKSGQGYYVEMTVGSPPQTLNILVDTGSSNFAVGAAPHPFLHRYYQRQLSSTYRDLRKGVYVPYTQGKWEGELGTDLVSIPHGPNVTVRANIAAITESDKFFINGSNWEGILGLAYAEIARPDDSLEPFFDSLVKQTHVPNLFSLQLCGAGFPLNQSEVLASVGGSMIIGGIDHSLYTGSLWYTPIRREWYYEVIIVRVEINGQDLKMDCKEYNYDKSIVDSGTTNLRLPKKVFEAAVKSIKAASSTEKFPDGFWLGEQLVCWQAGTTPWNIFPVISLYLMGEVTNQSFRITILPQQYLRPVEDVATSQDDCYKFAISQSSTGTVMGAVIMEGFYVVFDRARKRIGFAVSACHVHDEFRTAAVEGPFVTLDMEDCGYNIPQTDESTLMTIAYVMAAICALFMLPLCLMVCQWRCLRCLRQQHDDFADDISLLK
# assay: BACE Assay-1 (MCA-substrate, IC50)
# Format: biochemical
# testContext: procedure of Example 158; read-out: IC50 μM (158)
# Text: The following standards are reagents were used in this assay: Sodium Citrate trisodium salt dihydrate (Sigma), Citric Acid monohydrate (Merck), PEG8000 (Sigma), MCA-substrate (Bachem), β-secretase (BACE) (Panvera), 96-well plate zwart (Costar (Elscolab)), StatVal (Bachem). […] For test compounds, measured at multiple concentrations, the measured T0 and T60 values were used to calculate an IC50 value using Graphpad Software (or PIR).
recordedEndpoint: IC50

Consider the following illustrative entries.
CCCN1Cc2cc(Oc3cccc(NS(=O)(=O)c4ccc5c(c4)OCCO5)c3)ccc2N=C1N :: > 10 µM
CCCN1Cc2cc(Oc3cccc(NS(=O)(=O)c4cc(S(=O)(=O)c5ccccc5)cs4)c3)ccc2N=C1N :: > 10 µM
COc1cc(OC)cc(Oc2ccc3c(c2)CN(CCCCC(=O)N(C)C2CCCCC2)C(N)=N3)c1 :: > 10 µM

Now look at this entry.
Name the reported IC50 value associated with the compound CCCN1Cc2cc(Oc3cccc(NCC4CCCCC4)c3)ccc2N=C1N
0.28 µM

###

# testedOn: β-secretase(BACE) (Homo sapiens, UniProt P56817)
# Construct: purchased Panvera
# assay: BACE FS1% Inhibition Assay
# Assay type: biochemical
# testContext: 0.3 μM test compound; FS1 substrate; read-out: % Inhibition (FS)
recordedEndpoint: inhibition at 0.3 µM

Below, each entry is followed by its recorded inhibition at 0.3 µM result.
COc1cccc(CCNC(=O)CCC(C2CCCCC2)N2Cc3cc(F)ccc3N=C2N)c1 (stereo not drawn) :: < 30%
CC(C)(C)C(=O)NCCN1Cc2cc(Br)ccc2N=C1N :: < 30%

Can you share its inhibition at 0.3 µM? I mean this molecule: CN(C(=O)c1cccc(CN2Cc3cc(Br)ccc3N=C2N)c1)C1CCCCC1
< 30%

###

# testedOn: β-secretase(BACE) (Homo sapiens, UniProt P56817)
# Construct: purchased Panvera
# assay: BACE FS1% Inhibition Assay
# Assay type: biochemical
# testContext: 3 μM test compound; FS1 substrate
recordedEndpoint: % Inhibition (FS) 3 μM (%)

NC1=Nc2ccc(Oc3ccccc3)cc2CN1CC1CCN(C(=O)C23CC4CC(CC(C4)C2)C3)CC1 :: 51

I = NC1=Nc2ccc(Oc3ccccc3)cc2CN1C1c2ccccc2-c2cccc(C(=O)N(C3CCCCC3)C3CCCCC3)c21 (stereo not drawn)
II = NC1=Nc2ccc(-c3ccccc3F)cc2CN1CCNC(=O)C1CCC1
III = CNC(=O)c1ccccc1Sc1ccc2c(c1)CN(Cc1cccc(C(=O)N(C)C3CCCCC3)c1)C(N)=N2
Rank order required: % Inhibition (FS) 3 μM, descending. Field: ranking. Enter the labels in the order requested.
II, I, III

I = NC1=Nc2ccc(-c3cccc(C(F)(F)F)c3)cc2CN1CCNC(=O)Cc1ccccc1
II = NC1=Nc2ccc(Oc3ccccc3)cc2CN1C(CNC(=O)C12CC3CC(CC(C3)C1)C2)C1CCCCC1 (stereo not drawn)
III = Cc1cc(C)cc(Sc2ccc3c(c2)CN(Cc2cccc(C(=O)N(C)C4CCCCC4)c2)C(N)=N3)c1
Please rank these compounds by % Inhibition (FS) 3 μM in descending order. Show the ranking through the labels, in the order asked for.
II, III, I
(II: 115%, III: 72%, I: 41%)

a = CCCCC(CC)C(=O)NCCN1Cc2cc(-c3ccccc3F)ccc2N=C1N (stereo not drawn)
b = CCc1ccccc1Sc1ccc2c(c1)CN(Cc1cccc(C(=O)N(C)C3CCCCC3)c1)C(N)=N2
Select the item with the higher value of % Inhibition (FS) 3 μM from the options a and b listed. Give the label of your selection.
a
(a: 104%, b: 50%)
